# TARGET: Stromelysin-1 (Homo sapiens)
# Sequence (P08254 whole entry): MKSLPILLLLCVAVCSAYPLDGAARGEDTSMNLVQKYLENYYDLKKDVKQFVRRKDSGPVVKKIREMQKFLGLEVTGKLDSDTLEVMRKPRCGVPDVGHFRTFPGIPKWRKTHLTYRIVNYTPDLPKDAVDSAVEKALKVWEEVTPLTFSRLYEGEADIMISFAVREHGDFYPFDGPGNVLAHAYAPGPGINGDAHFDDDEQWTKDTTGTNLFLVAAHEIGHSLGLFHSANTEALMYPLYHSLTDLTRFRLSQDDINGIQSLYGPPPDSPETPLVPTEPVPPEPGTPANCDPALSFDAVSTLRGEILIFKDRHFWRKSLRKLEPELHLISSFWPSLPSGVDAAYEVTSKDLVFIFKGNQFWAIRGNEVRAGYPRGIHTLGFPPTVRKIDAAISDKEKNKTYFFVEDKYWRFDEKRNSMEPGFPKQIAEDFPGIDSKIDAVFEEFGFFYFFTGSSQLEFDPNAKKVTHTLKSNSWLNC
# ASSAY_COMMENT: Inhibitory concentration against human matrix metalloprotease-3 (MMP-3)
# MEASUREMENT_PARAMETERS: read-out: IC50
pIC50: −log10 of the molar value.
VALUE_TYPE: pIC50

For orientation, consider the following solved cases.
MOLECULE	pIC50
COc1ccc(S(=O)(=O)N2Cc3ccccc3C[C@@H]2C(=O)NO)cc1	7.70
O=C(c1ccccc1)c1ccc(S(=O)(=O)N2Cc3ccccc3CC2C(=O)NO)cc1 (stereo unspecified)	7.52
O=C(O)C1Cc2ccccc2CN1S(=O)(=O)c1ccc(-c2ccc(C(F)(F)F)cc2)cc1 (stereo unspecified)	6.52
COC(=O)c1csc(S(=O)(=O)N2Cc3ccccc3CC2C(=O)NO)c1OC (stereo unspecified)	6.15
O=C(NO)C1Cc2ccccc2CN1S(=O)(=O)c1ccc(-c2ccc(Cl)cc2)cc1 (stereo unspecified)	7.70

P = CCCCOc1ccc(S(=O)(=O)N2Cc3ccccc3CC2C(=O)NO)cc1 (stereo unspecified)
Q = COc1ccc(S(=O)(=O)N2Cc3cc(N)ccc3CC2C(=O)NO)cc1 (stereo unspecified)
R = O=C(NO)C1Cc2ccccc2CN1S(=O)(=O)c1ccc2ccccc2c1 (stereo unspecified)
Prompt: Sort by pIC50, descending. Reply with the labels, ordered as the question asks.
Completion: Q, P, R

====

# ASSAY_COMMENT: Affinity ratio of IC50 of MMP-8 to IC50 of MMP-3
VALUE_TYPE: Selectivity

COMPOUND	REPORTED_MEASUREMENT
COc1ccc(S(=O)(=O)N2Cc3cc(O)ccc3CC2C(=O)O)cc1 (stereo unspecified)	0.52
COc1ccc(S(=O)(=O)N2Cc3cc(N)ccc3CC2C(=O)O)cc1 (stereo unspecified)	0.7
CC(C)(C)OC(=O)Nc1ccc2c(c1)CC(C(=O)O)N(S(=O)(=O)c1ccc(-c3ccc(F)cc3)cc1)C2 (stereo unspecified)	1.12
O=C(O)[C@H]1Cc2ccccc2CN1S(=O)(=O)c1ccc(-c2ccc(F)cc2)cc1	1.3

I = O=C(O)[C@@H]1Cc2ccccc2CN1S(=O)(=O)c1ccc(-c2ccc(F)cc2)cc1
II = COc1ccc(S(=O)(=O)N2Cc3cc(NC(=O)[C@H](C)N)ccc3CC2C(=O)O)cc1 (stereo partly specified)
Prompt: For the two items I and II , which reports the higher Selectivity value? Mark your selection by writing its label.
Completion: II
(II: 0.7, I: 0.4)

====

# TARGET: Neutrophil collagenase (Homo sapiens, UniProt P22894)
# Sequence (P22894 whole entry): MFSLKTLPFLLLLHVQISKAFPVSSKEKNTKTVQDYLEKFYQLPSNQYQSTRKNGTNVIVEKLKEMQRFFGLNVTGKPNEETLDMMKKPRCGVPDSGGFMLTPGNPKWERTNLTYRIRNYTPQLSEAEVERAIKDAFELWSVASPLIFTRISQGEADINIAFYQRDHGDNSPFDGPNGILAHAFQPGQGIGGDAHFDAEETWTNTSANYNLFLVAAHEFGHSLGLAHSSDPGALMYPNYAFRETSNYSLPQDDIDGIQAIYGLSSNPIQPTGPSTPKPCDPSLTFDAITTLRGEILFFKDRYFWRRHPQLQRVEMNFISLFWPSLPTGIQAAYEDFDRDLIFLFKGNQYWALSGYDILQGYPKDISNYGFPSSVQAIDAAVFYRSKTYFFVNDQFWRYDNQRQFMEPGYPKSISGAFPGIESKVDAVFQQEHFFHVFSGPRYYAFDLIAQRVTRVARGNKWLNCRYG
# ASSAY_COMMENT: Inhibitory concentration against human matrix metalloprotease-8 (human neutrophil collagenase, MMP-8)
pIC50: −log10 of the molar value.
VALUE_TYPE: pIC50

Record excerpt, results attached:
COMPOUND	REPORTED_MEASUREMENT
COc1ccc(S(=O)(=O)N2Cc3ncn(C)c3C[C@@H]2C(=O)O)cc1	6.00
COc1ccc(S(=O)(=O)N2Cc3cc(NC(=O)[C@H](CC(=O)OC(C)(C)C)NC(=O)Cc4ccccc4)ccc3CC2C(=O)NO)cc1 (stereo not given in full)	8.00

a = O=C(NO)C1Cc2ccccc2CN1S(=O)(=O)c1cc(S(=O)(=O)c2ccccc2)cs1 (stereo not given)
b = O=C(O)C1Cc2ccccc2CN1S(=O)(=O)c1ccc(Sc2ccccc2)cc1 (stereo not given)
c = O=C(NO)C1Cc2ccccc2CN1S(=O)(=O)c1ccc(N2CCOCC2)cc1 (stereo not given)
Prompt: Order the entries by their reported pIC50, beginning at the minimum. Answer by listing the labels in the requested order.
Completion: a, b, c

P = O=C(O)C1Cc2ccccc2CN1S(=O)(=O)c1ccc(-c2ccc(C(F)(F)F)cc2)cc1 (stereo not given)
Q = CCOC(=O)Oc1ccc2c(c1)CN(S(=O)(=O)c1ccc(OC)cc1)C(C(=O)NO)C2 (stereo not given)
Prompt: Select the item whose pIC50 value is smaller, choosing between P and Q . Give the chosen item's label as your response.
Completion: P

a = O=C(O)C1Cc2ccccc2CN1S(=O)(=O)c1ccc(-c2ccon2)s1 (stereo not given)
b = O=C(O)C1Cc2ccccc2CN1S(=O)(=O)c1ccc(/C=C/c2ccccc2)cc1 (stereo not given)
c = CC(C)(C)OC(=O)Nc1ccc2c(c1)CC(C(=O)O)N(S(=O)(=O)c1ccc(-c3ccc(F)cc3)cc1)C2 (stereo not given)
d = COc1ccc(S(=O)(=O)N2Cc3cc(NC(=O)[C@H](C)N)ccc3CC2C(=O)O)cc1 (stereo not given in full)
Prompt: Put the items in sequence by pIC50, from largest down. Lab note: record answer as labels in requested order.
Completion: c, b, a, d

A = O=C(O)C1Cc2ccc(O)cc2CN1S(=O)(=O)c1ccc(-c2ccc(Cl)cc2)cc1 (stereo not given)
B = O=C(NO)C1Cc2ccccc2CN1S(=O)(=O)c1ccc(-c2ccon2)s1 (stereo not given)
C = O=C(O)C1Cc2ccccc2CN1S(=O)(=O)c1ccc(Br)cc1 (stereo not given)
D = COc1ccc(S(=O)(=O)N2Cc3cc(O)ccc3CC2C(=O)O)cc1 (stereo not given)
Prompt: Rank descending by pIC50. List labels; respect the requested ordering.
Completion: B, A, C, D
(B: 8.10, A: 7.70, C: 6.22, D: 5.52)

A = O=C(NO)C1Cc2ccccc2CN1S(=O)(=O)c1ccc2oc3ccccc3c2c1 (stereo not given)
B = O=C(NO)C1Cc2ccccc2CN1S(=O)(=O)c1ccc(OCc2ccc(F)cc2)cc1 (stereo not given)
C = COc1ccc(OC(=O)Nc2cccc(S(=O)(=O)N3Cc4ccccc4CC3C(=O)NO)c2)cc1 (stereo not given)
D = O=C(O)C1Cc2ccccc2CN1S(=O)(=O)c1ccc(-c2ccccn2)s1 (stereo not given)
Prompt: List these items ordered by pIC50, big to small. The reply should contain the labels ordered as requested.
Completion: B, A, D, C
